# credit: ChEMBL document CHEMBL3988442

TARGET DESC: Shiga toxin 2 (Escherichia coli O157:H7) (UniProt P09385+P09386)
EXPERIMENT NOTES: E. coli 0.157:H7 Shiga Toxin SOP - stx2 screening assay
Assay type: functional
Design: scale not given: direction of the effect not stated beside the values
CONDITION DETAILS: 30 µM
READOUT LABEL: Percent Effect (%)

# COMPOUND, REPORTED RESULT
rows = [
    ("CC(C)(C)C(=O)N1CCC2(COCc3cnc(N4CCOCC4)nc32)C1 (centres undefined)", -15.4),
    ("CNC(=O)c1cc2c(nc1NCC1CC1)CCN(S(=O)(=O)C1CC1)CC2", -5.47),
    ("Cc1[nH]/c(=N\\C(=O)c2csc(NCC(C)C)n2)sc1C", 12),
    ("COCCCN(C)C1CCCN(Cc2noc(C)n2)C1 (centres undefined)", -16.4),
    ("O=C(NCCCN1CCOCC1)Nc1cnc2cc(Cl)ccc2c1O", -13.4),
    ("O=C(c1ccc(F)cc1)N1C[C@@H]2OCCN(c3ncccn3)[C@@H]2C1", -4.11),
    ("Cn1cccc1-c1cc(C(=O)N2CCCC2c2cccnc2)[nH]n1 (centres undefined)", 4.82),
    ("CN(CCNC(=O)c1scnc1Cl)c1ccccc1", -17.4),
    ("O=C(NC1CCC1)[C@@H]1C[C@@H]2CCN(Cc3cccs3)C[C@@H]2O1", -16.7),
    ("COc1cccc(CCC(=O)N2CCCCC2Cn2cccn2)c1 (centres undefined)", 22.5),
    ("COc1cccc(C2CCCN2C(=O)c2cc3c([nH]c2=O)CCC3)c1 (centres undefined)", -5.59),
    ("Fc1cnc(N2CCCC3(CN(Cc4ccncc4)CCO3)C2)nc1 (centres undefined)", -0.17),
    ("CCn1cc(NC(=O)NCC(C)O)cn1 (centres undefined)", 3.43),
    ("CC(C)c1cc(NC(=O)CN2CCC(N3CCNC3=O)CC2)on1", -28.7),
    ("CN1CCCC(Cc2ccnc3ccncc23)CC1 (centres undefined)", -21.3),
    ("CC(C)c1nc(C(=O)NCCn2ccnc2)nn1-c1cccc(F)c1", 32.1),
    ("Cc1cc(C2CCCN2CCCc2nc3ccccc3o2)on1 (centres undefined)", 28.6),
    ("CCOc1ccccc1C(=O)N1CCCC1c1ncc2c(n1)CCNC2 (centres undefined)", 48.2),
    ("O=C(NC1CC1)[C@H]1C[C@H]2OCC[C@H]2N(CC2CC2)C1", -19.5),
    ("Cc1cc(CN2CCN(C(=O)Nc3cccnc3)CC2)on1", 26.4),
    ("Cc1nn(C)c(N2CCOCC2)c1CNC(c1cccs1)C(C)C (centres undefined)", 25.3),
    ("Cn1nc2c(cc1=O)CN(CCc1nc3ccccc3c(=O)[nH]1)CC2", 2.17),
    ("Cc1cc(-c2nn(C)c(Cl)c2CN2CCOCC(O)C2)no1 (centres undefined)", 16.3),
    ("CSc1ccc(C(CNC(=O)C2CC2)N2CCc3sccc3C2)cc1 (centres undefined)", 11.2),
]

###

TARGET DESC: Shiga toxin 2 (Escherichia coli O157:H7) (UniProt P09385+P09386)
EXPERIMENT NOTES: E. coli 0.157:H7 Shiga Toxin SOP - stx2 screening assay
Assay type: functional
Parameters: scale not given: direction of the effect not stated beside the values
CONDITION DETAILS: 30 µM
# Percent Effect annotations

# MOLECULE, UNIT INFO, Percent Effect
data = [
    ("OCCn1cc(CN2CCN(CCOc3ccccc3F)CC2)cn1", "%", 24.4),
    ("Cc1ccc(C(C)N(C)Cc2nc3c(cnn3C)c(=O)[nH]2)cc1 (stereo not drawn)", "%", 12.8),
    ("CC(Oc1ccccc1C(F)(F)F)C(=O)NCCC(=O)N(C)C (stereo not drawn)", "%", 8.25),
    ("CC(C)n1ncc2c1NC(=O)CSC2C(C)(C)C (stereo not drawn)", "%", -13.8),
    ("CSc1ccc(NS(=O)(=O)c2cnn(C)c2)cn1", "%", -7.54),
    ("CN(Cc1cccnc1)C1CC2(CCN(c3ccccn3)CC2)C1", "%", -47.1),
    ("O=c1[nH]c2c(c(=O)n1C1CCCCC1)CCC2NCCc1ccccc1 (stereo not drawn)", "%", 3.31),
    ("Cc1ccc(CC(=O)N2Cc3nccn3CC(CN(C)C)C2)cc1 (stereo not drawn)", "%", 5.05),
    ("O=C(NCC1CCCO1)c1c(-n2cnnn2)sc2c1CCC2 (stereo not drawn)", "%", 2.95),
    ("COc1ccc(CNCCc2cc(F)cc3c2OCOC3)cc1O", "%", -23.1),
    ("O=C(Cc1ccc2c(c1)OCCO2)N1CCCC(n2cccn2)C1 (stereo not drawn)", "%", 10.8),
    ("COCCN1C(=O)CC(N2CCN(c3ccc(F)cc3)CC2)C1=O (stereo not drawn)", "%", -24.6),
    ("CN(C)C(=O)CO[C@H]1CN(Cc2ccc(F)cc2)[C@@H]2CCCO[C@H]12", "%", -22),
    ("O=C(c1ccc(C2CCCO2)s1)N1CCN(c2ccccc2F)CC1 (stereo not drawn)", "%", -30.2),
    ("Cc1ccc(NC2CCN(C(=O)COCC(F)(F)F)CC2)nn1", "%", -13.9),
    ("CCn1nccc1CNC(=O)C1CCCC1", "%", -65.5),
    ("CCC1CN(CC(=O)Nc2sccc2C#N)CCO1 (stereo not drawn)", "%", 32.6),
    ("COc1cccc(OCC2CCCN(C3CCN(C(C)=O)CC3)C2)c1 (stereo not drawn)", "%", -0.97),
    ("CC(=O)N1CCCC(c2cnc(-c3c(C)nn(C)c3C)cn2)C1 (stereo not drawn)", "%", -14.1),
    ("CC(C)c1nc2c(n1C)CCN(CC(=O)Nc1ccc(Cl)cn1)C2", "%", -0.161),
    ("CN(C)C(CNC(=O)c1cccc(-n2cnnn2)c1)c1ccccc1Cl (stereo not drawn)", "%", -14.9),
    ("CSCC(=O)N1CCCN(c2ccccc2C)CC1", "%", -18.5),
    ("CC(C)c1noc(C(C)N2CCN(Cc3ccco3)CC2)n1 (stereo not drawn)", "%", 13.9),
    ("O=C(c1ccncc1)N1CCCn2c(CN3CCCCC3)nnc2C1", "%", -4.1),
    ("CCn1nc(C)c2ccn(CC(=O)NC3CCCC3)c(=O)c21", "%", 12.1),
    ("O=C(NCC1CC1)[C@H]1C[C@H]2OCC[C@H]2N(Cc2ccoc2)C1", "%", -11.8),
    ("Cc1nc(CN2CCOC(CNc3cccnn3)C2)cs1 (stereo not drawn)", "%", -2.07),
    ("Cc1cc(C)c(CNC(=O)N2CCCC2c2cccn2C)c(=O)[nH]1 (stereo not drawn)", "%", -31.2),
    ("CC(NC(=O)NCC1(N2CCCCC2)CCCCC1)c1nncn1C (stereo not drawn)", "%", 27.5),
    ("Nc1nccc(NCc2cc3n(n2)CCCN(C2CCCCC2)C3)n1", "%", -9.53),
    ("O=C(N[C@@H]1CN(Cc2ccccc2)C[C@@H]2CCCO[C@@H]21)C1CC1", "%", -19.6),
    ("Cc1nc(Nc2nnc(C)s2)cc(C2CCCN2C)n1 (stereo not drawn)", "%", -26.6),
    ("Cn1c(C(F)(F)F)nn(CCNC(=O)CSCc2ccccc2)c1=O", "%", 4.5),
    ("Cc1nc(C2CCN(C(=O)c3ccc(=O)n(C)c3)CC2)c2sccn12", "%", -17.4),
    ("CC(=O)N1CCN([C@@H]2CC[C@@H](NC(=O)c3cncc(C)c3)[C@H]2O)CC1", "%", -14),
    ("CCN1C[C@H]2CCN(C(C)=O)CC[C@H]2S1(=O)=O", "%", -50.9),
    ("O=C(NCC1(CO)CC1)c1cccc2ccccc12", "%", -0.178),
    ("CC(C)c1nn(C)c(N2CCOCC2)c1CNCCS(C)(=O)=O", "%", -5.89),
    ("CCOc1cc(C(=O)N2CCCC(n3cncn3)C2)ccc1C (stereo not drawn)", "%", 17.5),
    ("O=C(NCCCn1cncn1)NCC(c1ccco1)N1CCCCC1 (stereo not drawn)", "%", 18.2),
    ("O=C(C1CC=CC1)N1CCc2c(COCc3ccncc3)cncc2C1", "%", -51.1),
    ("CN(C)CCNC(=O)c1ccc(OC2CCN(S(C)(=O)=O)CC2)c(Cl)c1", "%", -25.9),
    ("c1cnnc(N2CCCC2CNCc2nc3ccccc3o2)c1 (stereo not drawn)", "%", -25.7),
    ("O=C(c1ccc[nH]1)N1CCn2cc(CN3CCCC3)nc2C1", "%", 0.78),
    ("O=C1N(c2ccccc2)Cc2nc(=O)[nH]n21", "%", -29.1),
    ("CCc1nnc2n1CCN(Cc1nc(-c3ccoc3)no1)C2", "%", -17.8),
    ("COc1ccc(S(=O)(=O)N2CCC(S(C)(=O)=O)CC2)cc1C", "%", -1.05),
    ("Fc1ccc(CN2CCCC(Cn3cncn3)C2)c2ncccc12 (stereo not drawn)", "%", -38.7),
]
